- assay.target: His-tagged canine IL-31 (interleukin 31) recombinant protein (canine)
- experiment.notes: BLI (Gator), biotinylated antibody on streptavidin probe, canine IL-31 as analyte
reported.endpoint: koff (s⁻¹)
Report the value in s⁻¹ with no unit label.

binder | koff (s⁻¹)
7475-H1K1-canIgGB (antibody, V domains shown) VH: EVQLVESGGDLVKPGGSLRLSCVASGFTFSSYAMSWVRQAPGKGLQWVAYISNGGDYIFYADTVKGRFTISRDNARNTLYLQMNSLRSEDTAVYYCTRRGHYNTSSYWYFDVWGQGTLVTVSS VL: EIVMTQSPASLSLSQEEKVTITCKASENVGTYVSWYQQKPGQAPKLLIYGASNRYTGVPSRFSGSGSGTDFTFTISSLEPEDVAVYYCGQSYSYPPTFGAGTKVELKR | 0.00156

Query: I would be grateful if you could share the reported koff for 7475-mHvKv-canIgGB (antibody, V domains shown) VH: EVKLVESGEGLVKPGGSLKLSCAASGFTFSSYAMSWVRQTPEKRLEWVAYISNGGDYIFYADTVKGRFTISRDNARNTLYLQMSSLKSEDTAMYYCTRRGHYNTSSYWYFDVWGTGTTVTVSS VL: DIVMTQSPKSMSMSVGERVTLSCKASENVGTYVSWYQQKPEQSPKLLIYGASNRYTGVPDRFTGSGSATDFTLTISSVQAEDLADYHCGQSYSYPPTFGAGTKLELKR .
Result: 0.000251
